Ref: the supplement of paper PMC10567573

Reported protein stability index by item:
B1: ADD1 (parent)
chain: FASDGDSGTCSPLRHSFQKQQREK

# Variants of: B1
# protocol description: protein stability index of a GFP-peptide fusion (GPS, HEK-293T) (PSI 1-6); higher = more stable;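 also: lentivirally expressed fusions sorted by FACS into six bins by GFP to DsRed ratio, PSI derived from sequencing read proportions per bin multiplied by bin number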
# experimental conditions: c terminus: a fixed tail appended
Hey, just send me the number, nothing else.

// solved cases for protein stability index follow
S11I: 3.79
S3V: 4.09
G8R: 3.98

Please look up its protein stability index: G8M
2.96

Please look up its protein stability index: P12K
3.3

Please look up its protein stability index: T9H
3.45

Please look up its protein stability index: S11A
3.9

Please look up its protein stability index: A2C
3.54

Please look up its protein stability index: S7G
3.46

Please look up its protein stability index: K19P
3.09

Please look up its protein stability index: H15C
2.62
